test system: IGROV1 ovarian; experiment: NCI tumour cell line growth inhibition, 48 h

# compound, target entity, TGI
records = [
    ("CCOc1ccc2c(c1)[n+]([O-])c(-c1nc3ccccc3s1)c(N)[n+]2[O-]", "IGROV1 ovarian", "> 100 µM"),
    ("c1cc2c(ncc3cscc32)s1", "IGROV1 ovarian", "> 31.6 µM"),
    ("Cc1ccc(C)c(COCCOCn2ccc(N)nc2=O)c1", "IGROV1 ovarian", "> 100 µM"),
    ("O=c1[nH]c(Nc2nc3ccccc3[nH]2)nc2c1CCC2", "IGROV1 ovarian", "> 100 µM"),
    ("COc1cc2c(cc1OC)CCc1cc(OC)c(OC)cc1CC2", "IGROV1 ovarian", "> 100 µM"),
    ("O=C(Nc1ccc(Cl)cc1Cl)C(=O)C(C(=O)c1ccncc1)C1OC(=O)c2ccccc21 (stereo not given)", "IGROV1 ovarian", "> 100 µM"),
    ("COC(=O)CCc1cc(O)c2c(c1)C(C(=O)OC)C(c1ccc(O)c(O)c1)O2 (stereo not given)", "IGROV1 ovarian", "> 92.5 µM"),
    ("CSc1nc2cc(S(=O)(=O)N3CCCCC3)ccc2s1", "IGROV1 ovarian", "> 100 µM"),
    ("CC(C)=CC(=O)C[C@H]1C(=O)O[C@@H]2C[C@H]3C(C)=CC(=O)[C@@H](O)[C@]3(C)[C@H]3[C@@]4(O)OC[C@]32[C@@H]1[C@@H](C)[C@H]4O", "IGROV1 ovarian", "0.941 µM"),
    ("COc1ccc(-c2nnc(COc3ccc(NC(=O)Nc4ccc(Cl)c(C(F)(F)F)c4)cc3F)o2)cc1", "IGROV1 ovarian", "26.4 µM"),
]

* * *

tested on: NCI/ADR-RES ovarian; assay: NCI tumour cell line growth inhibition, 48 h
// values below are reported TGI

# molecule, target entity, TGI
data = [
    ("N#C/C(N)=C(\\C#N)N=CN", "NCI/ADR-RES ovarian", "> 100 µM"),
    ("O=c1oc2cc(O)ccc2c(O)c1C(c1ccccc1F)c1c(O)c2ccc(O)cc2oc1=O", "NCI/ADR-RES ovarian", "> 100 µM"),
    ("COc1cc(OC)cc(-c2nc3cc(F)ccc3s2)c1", "NCI/ADR-RES ovarian", "> 100 µM"),
    ("Cn1cnc([N+](=O)[O-])c1[Se]c1nc(N)nc2c1ncn2C1OC(CO)C(O)C1O (stereo not given)", "NCI/ADR-RES ovarian", "> 100 µM"),
    ("O=C(Cc1ccccc1)N/N=C/c1ccccc1O", "NCI/ADR-RES ovarian", "> 100 µM"),
    ("CNC(=O)N1CN(c2ccccc2)C2(CCN(CCCC3(c4ccc(F)cc4)OCCO3)CC2)C1=O", "NCI/ADR-RES ovarian", "> 100 µM"),
    ("Cc1ccccc1N=Nc1ccc(N/N=C2/CCCNC2=O)c(C)c1", "NCI/ADR-RES ovarian", "> 100 µM"),
    ("c1csc(-c2cc(-c3cccs3)c(-c3ccsc3)s2)c1", "NCI/ADR-RES ovarian", "> 100 µM"),
    ("Cc1ccc(C(=O)Nc2ccc(CN3CCN(C)CC3)c(C(F)(F)F)c2)cc1C#Cc1cnc(N)c2ccccc12", "NCI/ADR-RES ovarian", "1.82 µM"),
    ("COC(=O)C(COC(C)=O)NC(=O)/C=C/c1ccc(O)c(OC(C)=O)c1 (stereo not given)", "NCI/ADR-RES ovarian", "> 100 µM"),
    ("Cc1cc(O)c(C(C)(C)C)cc1Sc1cc(C(C)(C)C)c(O)cc1C", "NCI/ADR-RES ovarian", "7.58 µM"),
    ("C[C@H](C(=O)N[C@@H](Cc1ccc(-c2ccccc2)cc1)C(=O)NC1CC(C)(C)NC(C)(C)C1)c1ccc(-c2ccccc2)c(F)c1", "NCI/ADR-RES ovarian", "4.47 µM"),
    ("C=C1CC[C@H](O)C(C)(C)[C@@H]1CC/C(C)=C/CC/C=C(\\C)CC/C=C(\\C)CCC=C(C)C", "NCI/ADR-RES ovarian", "> 100 µM"),
    ("CCN(CC)CC(=O)O[C@]1(CC)C(=O)OCc2c1cc1n(c2=O)Cc2cc3ccccc3nc2-1", "NCI/ADR-RES ovarian", "0.165 µM"),
    ("CCOC(=O)C1(C(=O)OCC)C[C@H](C)[C@](C)(O)C1", "NCI/ADR-RES ovarian", "> 100 µM"),
]

* * *

// values below are reported TGI
test system: SF-295 CNS; assay: NCI tumour cell line growth inhibition, 48 h

# compound, TGI
records = [
    ("CS(=O)(=O)c1cc(=O)c2ccccc2s1", "24.8 µM"),
    ("Cn1cnc([N+](=O)[O-])c1[Se]c1nc(N)nc2c1ncn2C1OC(CO)C(O)C1O (stereo not given)", "> 100 µM"),
    ("Cc1nc(-c2ccccc2)c(-c2ccccc2)s1", "> 100 µM"),
    ("CCCCOC(=O)NC(=O)c1cn(C2CCCCC2)c(=O)[nH]c1=O", "> 100 µM"),
    ("CC(=O)N1C/C(=C\\c2ccc(N(C)C)cc2)C(=O)/C(=C/c2ccc(N(C)C)cc2)C1", "> 100 µM"),
]

* * *

system: SR leukemia; test: NCI tumour cell line growth inhibition, 48 h; in the data active means GI50 below about 0.43 µM; inactive means the rest
Outcomes: active, inactive

# molecule, class
rows = [
    ("CCc1oc2ccccc2c1C(=O)c1cc(I)c(O)c(I)c1", "inactive"),
    ("COc1cc2c(c(OC)c1OC)C(=O)[C@@H]1c3ccc([N+](=O)[O-])cc3C(=O)N(CCCBr)[C@H]21", "inactive"),
    ("COc1cc2c3c(n(C)c(=O)c2cc1OC)-c1cc2c(cc1/C3=C\\CNCCCN)OCO2", "active"),
    ("O=C(/C=C\\n1cnc(-c2cc(C(F)(F)F)cc(C(F)(F)F)c2)n1)NNc1cnccn1", "active"),
    ("COc1cc2c3c(n(CCNCCCNCCn4c5c(c6cc(OC)c(OC)cc6c4=O)C(=O)c4ccccc4-5)c(=O)c2cc1OC)-c1ccccc1C3=O", "active"),
    ("COC(=O)[C@H](Cc1c[nH]c2ccccc12)NC(=O)[C@@H](OC)[C@@H]1Cc2cc3cc(OC4CC(OC5CC(O)C(O)C(C)O5)C(O)C(C)O4)c(C)c(O)c3c(O)c2C(=O)[C@H]1OC1CC(OC2CC(OC3CC(C)(O)C(O)C(C)O3)C(O)C(C)O2)C(O)C(C)O1 (some centres undefined)", "active"),
    ("COc1cc2c3c(n(CCCCOC(=O)C(Cl)(Cl)Cl)c(=O)c2cc1OC)-c1cc2c(cc1C3=O)OCO2", "inactive"),
    ("O=S1(=O)N(CCNc2nccc(-c3c(-c4cccc(O)c4)nc4sccn34)n2)CCN1Cc1ccccc1", "inactive"),
    ("Cc1ccc(NC(=O)c2sc3nc(C)c(C(O)c4ccccc4)cc3c2N)cc1 (centres undefined)", "active"),
]

* * *

tested on: SK-MEL-2 melanoma; experiment: NCI tumour cell line growth inhibition, 48 h; in the data active means GI50 below about 0.43 µM; inactive means the rest
Outcomes: active, inactive

# compound, target entity, class
measured = [
    ("COC(=O)c1c(C)[nH]c(/C=C2\\N=C(c3ccc[nH]3)C=C2OC)c1C", "SK-MEL-2 melanoma", "active"),
    ("CC(=O)O.[Au].c1ccc([PH+](c2ccccc2)c2ccccc2)cc1", "SK-MEL-2 melanoma", "inactive"),
    ("C/C(=N\\Nc1ccc(Cl)cn1)c1ccccn1", "SK-MEL-2 melanoma", "inactive"),
    ("COc1cc2c3c(n(C)c(=O)c2cc1OC)-c1cc2c(cc1/C3=C\\CNCCCN)OCO2", "SK-MEL-2 melanoma", "inactive"),
    ("COc1cc2c3c(n(CCNCCCNCCn4c5c(c6cc(OC)c(OC)cc6c4=O)C(=O)c4ccccc4-5)c(=O)c2cc1OC)-c1ccccc1C3=O", "SK-MEL-2 melanoma", "inactive"),
    ("CCN(CC)CCCC(C)Nc1cnc(C(=O)Nc2cccc3ccc(OC)nc23)cn1 (stereo not drawn)", "SK-MEL-2 melanoma", "inactive"),
    ("CON(C)C(=O)N1N=C(c2cc(F)ccc2F)SC1(CCCN)c1ccccc1 (stereo not drawn)", "SK-MEL-2 melanoma", "active"),
    ("CCOC(=O)c1c(C)nc2c(c1N)/C(=C/c1ccc(OC)cc1)C(=O)N2Cc1ccc(F)cc1", "SK-MEL-2 melanoma", "active"),
]

* * *

// values below are reported TGI
tested on: SNB-75 CNS; test: NCI tumour cell line growth inhibition, 48 h
Where a SMILES comes first, the peptide text is derived from it. The star is where a group is joined. Cbz = O=C(OCc1ccccc1)*; Boc = CC(C)(C)OC(=O)*; tBu = CC(C)(C)*

# molecule, TGI
records = [
    ("CC[CH2][Sn]([Cl])([Cl])[CH2]CC.Oc1ccccc1C=NCCN=Cc1ccccc1O", "16.1 µM"),
    ("Cn1c2ccccc2c2c3[nH]c(=O)[nH]c(=O)c3c3c4ccccc4n(C)c3c21", "3.27 µM"),
    ("O=C(/C(=C/c1cccc([N+](=O)[O-])c1)c1ccccc1)c1ccccc1", "7.65 µM"),
    ("CSC1=N/C(=C\\c2ccccc2)C(=O)N1CN1CCCCC1", "> 100 µM"),
    ("Nc1ncn(C2CC(O)C(CO)O2)c(=O)n1 (stereo unspecified)", "> 288 µM"),
    ("CC(OC(C)(C)C)C(NC(=O)C(CCCCNC(=O)OC(C)(C)C)NC(=O)C(Cc1c[nH]c2ccccc12)NC(=O)C(Cc1ccccc1)NC(=O)OCc1ccccc1)C(=O)NC(Cc1ccccc1)C(=O)O (stereo unspecified) (Cbz-FWK(Boc)T(tBu)F-OH; configuration not given here)", "> 100 µM"),
    ("CCCCN1CSC(=S)N(Cc2ccccc2)C1", "> 100 µM"),
    ("Clc1ccccc1/C=C/c1cscn1", "> 100 µM"),
    ("Cn1cnc([N+](=O)[O-])c1[Se]c1nc(N)nc2c1ncn2C1OC(CO)C(O)C1O (stereo unspecified)", "> 100 µM"),
    ("CC1(C)CC(=O)C(/C=N/c2nc(-c3ccccc3)cs2)=C(O)C1", "> 100 µM"),
    ("C=C1C(=O)O[C@H]2[C@H]1CC/C(COC(=O)c1cc3ccccc3s1)=C\\CC[C@@]1(C)O[C@@H]21", "13.4 µM"),
]
